- TARGET_OF_ASSAY: T1, CEACAM1-HIS (Sino Biologics Inc.) (Homo sapiens (Human), UniProt P13688 35-428)
- T1 construct: bought; not shown: His tag
- T1 sequence: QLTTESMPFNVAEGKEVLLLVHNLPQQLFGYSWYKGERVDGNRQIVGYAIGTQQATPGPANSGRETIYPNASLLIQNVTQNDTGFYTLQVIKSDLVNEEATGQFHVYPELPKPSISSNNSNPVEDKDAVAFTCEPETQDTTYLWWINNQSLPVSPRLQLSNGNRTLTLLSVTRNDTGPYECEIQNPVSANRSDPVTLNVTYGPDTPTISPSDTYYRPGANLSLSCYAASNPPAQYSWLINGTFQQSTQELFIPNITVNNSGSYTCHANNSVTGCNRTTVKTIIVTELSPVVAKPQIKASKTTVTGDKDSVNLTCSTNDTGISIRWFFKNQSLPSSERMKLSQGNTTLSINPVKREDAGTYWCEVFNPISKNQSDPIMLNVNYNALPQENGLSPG
- PROTOCOL_TEXT: SPR multi-cycle, IgG on Protein A
Form field: koff (one value per entry).
I only need the number, in s⁻¹, no unit after it.

Reference set, count: 3
Prompt: koff for VH1/Vκ2 (antibody, V domains shown) VH: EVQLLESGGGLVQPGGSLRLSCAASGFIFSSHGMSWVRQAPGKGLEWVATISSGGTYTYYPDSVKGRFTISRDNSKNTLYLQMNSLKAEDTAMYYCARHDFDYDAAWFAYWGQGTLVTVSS VL: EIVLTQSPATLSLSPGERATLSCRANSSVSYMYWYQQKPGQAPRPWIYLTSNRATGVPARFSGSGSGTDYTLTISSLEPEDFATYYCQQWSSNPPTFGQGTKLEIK ?
Response: 0.00551

Prompt: koff for VH2/Vκ1 (antibody, V domains shown) VH: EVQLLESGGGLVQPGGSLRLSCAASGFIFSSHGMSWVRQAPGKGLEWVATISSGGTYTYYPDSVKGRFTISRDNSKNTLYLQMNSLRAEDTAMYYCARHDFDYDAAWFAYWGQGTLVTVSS VL: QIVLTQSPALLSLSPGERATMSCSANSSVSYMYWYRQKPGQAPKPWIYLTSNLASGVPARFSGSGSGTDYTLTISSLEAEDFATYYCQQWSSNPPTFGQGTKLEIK ?
Response: 0.0052

Prompt: koff for VH1/Vκ1 (antibody, V domains shown) VH: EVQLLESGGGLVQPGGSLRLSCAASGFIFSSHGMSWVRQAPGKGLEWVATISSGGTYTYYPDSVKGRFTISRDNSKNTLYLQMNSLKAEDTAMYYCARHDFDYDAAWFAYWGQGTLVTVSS VL: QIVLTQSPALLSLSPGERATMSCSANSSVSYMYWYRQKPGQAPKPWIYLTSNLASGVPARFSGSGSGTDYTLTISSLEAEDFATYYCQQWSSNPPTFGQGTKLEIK ?
Response: 0.00384

---
Prompt: koff for VH2/Vκ2 (antibody, V domains shown) VH: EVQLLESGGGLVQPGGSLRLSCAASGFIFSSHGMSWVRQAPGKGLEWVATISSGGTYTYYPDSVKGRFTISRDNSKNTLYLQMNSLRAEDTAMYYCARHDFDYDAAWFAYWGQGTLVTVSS VL: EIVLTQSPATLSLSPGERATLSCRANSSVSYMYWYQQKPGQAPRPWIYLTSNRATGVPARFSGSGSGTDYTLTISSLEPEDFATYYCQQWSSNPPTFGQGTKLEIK ?
Response: 0.00496
